Each recorded value in this set is attributed to the supplement of paper PMC9732359.

experimentalProtocol: protein stability index of a GFP-peptide fusion (yeast GPS) (PSI 1-4); higher = more stable; sorted into four equal gates, so the index is relative within each strain
studyConditions: ubr1∆
Please note: condition met applies when protein stability index is 3 or greater, and condition not met applies otherwise.

>  <sequenceText>
IDKITDGLGNVVDFTSL [YMR129W/POM152]

>  <assignedCategory>
condition met

$$$$
>  <sequenceText>
SSSANKLLQLFLTPMDS [YML103C/NUP188]

>  <assignedCategory>
condition not met

$$$$
>  <sequenceText>
SFLEKPKFAIQDNHHIT [YMR129W/POM152]

>  <assignedCategory>
condition not met

$$$$

Now, please, on to the next sequence.
Inquiry: API: above_or_equal(metric=protein stability index, cutoff=3) for item CLSPGAFLSKVPEFFQT [SRP14]
Reply text: condition not met
